tested on: T1, Human SIRPαV2 (CAA71403.1), Extracellular Domain + His-Tag (human, UniProt P78324 31-373)
T1 construct: also called huSIRPαV2; hSIRPαV2; not shown: His-Tag
T1 sequence (P78324 other isoform, or with tags, fused parts or gaps): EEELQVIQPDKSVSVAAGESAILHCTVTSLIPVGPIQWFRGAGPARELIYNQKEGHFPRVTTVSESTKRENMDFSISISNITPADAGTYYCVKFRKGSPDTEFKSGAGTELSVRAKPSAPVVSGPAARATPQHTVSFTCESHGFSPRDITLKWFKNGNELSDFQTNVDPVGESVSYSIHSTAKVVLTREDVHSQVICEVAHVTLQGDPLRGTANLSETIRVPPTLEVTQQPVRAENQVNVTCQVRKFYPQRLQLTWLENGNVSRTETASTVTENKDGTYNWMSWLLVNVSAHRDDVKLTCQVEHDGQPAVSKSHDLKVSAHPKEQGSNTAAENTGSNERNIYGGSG
experiment description: SPR, antibody captured on Protein A/G, ECD-His analyte, 1:1 fit
Measured Kd, listed per entry for reference.
outcome measure: Kd (nM)

>>> reported("Antibody A14 (antibody, human IgG1, kappa, L234A L235A, V domains shown) VH: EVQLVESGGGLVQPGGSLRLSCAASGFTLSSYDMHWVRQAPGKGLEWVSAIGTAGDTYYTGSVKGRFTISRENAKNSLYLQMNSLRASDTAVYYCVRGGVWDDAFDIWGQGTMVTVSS VL: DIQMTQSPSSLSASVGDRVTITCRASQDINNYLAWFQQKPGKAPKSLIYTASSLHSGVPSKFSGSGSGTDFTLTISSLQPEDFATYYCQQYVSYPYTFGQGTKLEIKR")
7.95
>>> reported("Antibody E1 (antibody, human IgG1, kappa, L234A L235A, V domains shown) VH: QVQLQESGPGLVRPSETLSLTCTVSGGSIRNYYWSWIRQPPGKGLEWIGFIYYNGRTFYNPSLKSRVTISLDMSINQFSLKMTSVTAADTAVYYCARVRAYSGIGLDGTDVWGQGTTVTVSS VL: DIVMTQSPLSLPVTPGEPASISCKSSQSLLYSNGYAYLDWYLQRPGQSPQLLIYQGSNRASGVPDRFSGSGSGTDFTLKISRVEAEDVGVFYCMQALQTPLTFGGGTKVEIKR")
0.63
